This collection of values is drawn from ChEMBL document CHEMBL1201862.

Below, each entry is listed alongside its reported GI50.
Tested on: NCI-H522
method notes: NCI tumour cell line growth inhibition, 48 h
Calls of active or inactive are those of the source. Cut-off read from the data, not from the text of the source: active = GI50 up to about 1.1 µM and inactive = higher.

Given O=C(CSc1nc2ccc(I)cc2c(=O)n1Cc1ccccc1)NN1C(=O)CSC1c1ccccc1 (stereo not drawn) , respond with its GI50.
15.6 µM (inactive)

---
Given `COc1ccc(C2=C(N)c3cc(OC)ccc3C2=O)cc1` , respond with its GI50.
> 100 µM (inactive)

Given `Cn1c(=O)c(C(=O)Nc2nc(C34CC5CC(CC(C5)C3)C4)cs2)c(O)c2ccccc21` , respond with its GI50.
55.3 µM (inactive)

----------
Below, each entry is listed alongside its reported GI50.
Test system: HL-60
method notes: NCI tumour cell line growth inhibition, 48 h
Active and inactive are the calls of the source. Cut-off read from the data, not from the text of the source: active = GI50 up to about 1.1 µM and inactive = higher.

Given CC1(C2CCC3(C)C(C2)C3Sc2ccccc2)OCCO1 (centres undefined) , respond with its GI50.
12.1 µM (inactive)

Given `O=C(CSCC(=O)N/N=C\c1ccccc1F)N/N=C\c1ccccc1F` , respond with its GI50.
> 100 µM (inactive)

Given CCOc1ccc(NC(=O)CC2Sc3ccccc3NC2=O)cc1 (centres undefined) , respond with its GI50.
> 100 µM (inactive)

---
Given `N#Cc1nc(C2CCC2)oc1N` , respond with its GI50.
84.9 µM (inactive)

----------
Tested on: HCT-116
method notes: NCI tumour cell line growth inhibition, 48 h
The source made the active and inactive calls. No stated cut-off is given here; in the data, active = GI50 up to about 1.1 µM and inactive = higher.
Assign a class; possible classes are active, inactive

Test call, this compound: CC(=O)OCC1OC(n2c(N)c(C#N)c(C)c(C#N)c2=S)C(OC(C)=O)C(OC(C)=O)C1OC(C)=O (stereo unspecified)
inactive

Test call, this compound: `CN(C)CCCNC(=O)c1c(O)c2ccccc2[nH]c1=O`
inactive

Test call, this compound: C=C1C(=O)O[C@H]2C[C@@H](C)[C@@H]3CC(=O)OC[C@@]3(C)CC12 (stereo partly specified)
inactive

Test call, this compound: `COc1ccc(C(=O)/C=C2\C(=O)Nc3ccc(Br)cc32)cc1`
inactive

---
Test call, this compound: `CCOC(=O)/C=C(\C(=O)OCC)n1cc(C)c(=O)n(Cc2cn(COCCOC(C)=O)nn2)c1=O`
inactive

Test call, this compound: `O=C1Nc2ccccc2/C1=N/Nc1nc(-c2ccc(Br)cc2)cs1`
inactive

Test call, this compound: `CC(C)N1C=[N+](C(C)C)CC1`
inactive

----------
System: EKVX
method notes: NCI tumour cell line growth inhibition, 48 h
Active and inactive are the calls of the source. Rule as the data show it: active = GI50 up to about 1.1 µM and inactive = higher.
Assign a class; possible classes are class 1 for active, class 0 for inactive

Test call, this molecule: `CC1(C)OC[C@@]2([C@@H]3CC[C@@H](C3)C2(C)C)N1O`
class 0

Test call, this molecule: CC(=O)Nc1ccc(N2C(=O)CS(=O)(=O)C2c2cccc(Oc3ccccc3)c2)cc1 (centres undefined)
class 0

Test call, this molecule: `CCn1c2ccccc2c(=O)c2c(OC)ccc(OC)c21`
class 0

Test call, this molecule: `COc1ccc(/C=C/C(=O)C(C)(C)C)cc1OC`
class 0

Test call, this molecule: `COc1cc(/C=C\c2ccccc2)cc(OC)c1OC`
class 0

Test call, this molecule: `COc1ccc2oc(=O)c(-c3csc(-c4ccccc4)n3)cc2c1`
class 0

Test call, this molecule: `CC(C)(C)CC(N)=O`
class 0

Test call, this molecule: `COc1ccc(-c2nnc3n(C)c4ccccc4n3c2=O)cc1`
class 0

Test call, this molecule: CN1c2c(O)nc(N)nc2NCC1CCNc1ccc(C(=O)NC(CCC(=O)O)C(=O)O)cc1 (centres undefined)
class 0

Test call, this molecule: `CCOC(=O)c1cc2ncccc2c2ccccc12`
class 0

---
Test call, this molecule: Fc1ccc(C(OCCN2CCC3CCC(C2)N3CCCc2ccccc2)c2ccc(F)cc2)cc1 (centres undefined)
class 0

Test call, this molecule: COC1CC(CC2CCC(C)C(C(C)C(=O)O)O2)OC2(OC(C)(C3CCC(C)(C4OC(C5OC(O)(CO)C(C)CC5C)CC4C)O3)CC2C)C1C (centres undefined)
class 0

Test call, this molecule: CC1(C2CCC3(C)C(C2)C3Sc2ccccc2)OCCO1 (centres undefined)
class 0

Test call, this molecule: N#CC1=C(N)OC2=C(CCCc3ccccc32)C1c1ccc([N+](=O)[O-])cc1 (centres undefined)
class 0

Test call, this molecule: CC(C)C(Sc1nc(-c2ccccc2)c(-c2ccccc2)[nH]1)c1n[nH]c(=S)n1-c1ccccc1 (centres undefined)
class 0

Test call, this molecule: C[C@@H](C1CC[C@H]2[C@@H]3[C@@H]4O[C@@H]4[C@@]4(O)CC=CC(=O)[C@]4(C)[C@H]3C[C@H](O)[C@]12C)[C@H]1C[C@]2(C)O[C@]2(C)C(=O)O1 (some centres undefined)
class 0

Test call, this molecule: `O=C1C=C(Br)C(=O)C(Br)=C1`
class 0

Test call, this molecule: `S=C(N/N=C/c1ccccn1)N1CCCCC1`
class 1
